# ASSAY METHOD TEXT: Biodistribution of 177Lu-labeled αMSH analogues in mice bearing SK-MEL-1 human melanoma
# SETTINGS: male, NRG (NOD.Cg-Rag1tm1Mom Il2rgtm1Wjl/SzJ), mouse, urine, total radioactivity
QUANTITY: excreta dose per gram or mL at 24 h (%ID/g)
Give bare numbers, in %ID/g.

Recorded excreta dose per gram or mL at 24 h, per entry:
compound="CCCC[C@H](NC(=O)CN1CCC(NC(=O)[C@H](CCCCNC(=O)CN2CCN(CC(=O)O)CCN(CC(=O)O)CCN(CC(=O)O)CC2)NC(=O)CNC(=O)CCCc2ccc(I)cc2)CC1)C(=O)N[C@H]1CC(=O)NCCCC[C@@H](C(N)=O)N(C)C(=O)[C@H](Cc2c[nH]c3ccccc23)NC(=O)[C@H](CCCNC(=N)N)N(C)C(=O)[C@@H](Cc2ccccc2)NC(=O)[C@H](Cc2c[nH]cn2)NC1=O [^177Lu-labeled CCZ01148, metal not drawn]" recorded_result=20.4
compound="CCCC[C@H](NC(=O)CN1CCC(NC(=O)[C@H](CCCCNC(=O)CN2CCN(CC(=O)O)CCN(CC(=O)O)CCN(CC(=O)O)CC2)NC(=O)[C@H](CCC(=O)O)NC(=O)CCCc2ccc(I)cc2)CC1)C(=O)N[C@H]1CC(=O)NCCCC[C@@H](C(N)=O)N(C)C(=O)[C@H](Cc2c[nH]c3ccccc23)NC(=O)[C@H](CCCNC(=N)N)N(C)C(=O)[C@@H](Cc2ccccc2)NC(=O)[C@H](Cc2c[nH]cn2)NC1=O [^177Lu-labeled CCZ01118, metal not drawn]" recorded_result=5.39

Here is another compound to look at.
Qu. Please give the measured excreta dose per gram or mL at 24 h for this compound: CCCC[C@H](NC(=O)CN1CCC(NC(=O)[C@H](CCCCNC(=O)CN2CCN(CC(=O)O)CCN(CC(=O)O)CCN(CC(=O)O)CC2)NC(=O)CNC(=O)CCCc2ccc(-c3ccc(C)cc3)cc2)CC1)C(=O)N[C@H]1CC(=O)NCCCC[C@@H](C(N)=O)N(C)C(=O)[C@H](Cc2c[nH]c3ccccc23)NC(=O)[C@H](CCCNC(=N)N)N(C)C(=O)[C@@H](Cc2ccccc2)NC(=O)[C@H](Cc2c[nH]cn2)NC1=O [^177Lu-labeled CCZ01158, metal not drawn]
Ans. 21.8

###

Give measured tissue uptake at 4 h for each item. Keep answers brief.
# ASSAY METHOD TEXT: Biodistribution of 177Lu-labeled αMSH analogues in mice bearing SK-MEL-1 human melanoma
# SETTINGS: male, NRG (NOD.Cg-Rag1tm1Mom Il2rgtm1Wjl/SzJ), mouse, muscle, total radioactivity
Give bare numbers, in %ID/g.

Worked set:
compound="CCCC[C@H](NC(=O)CN1CCC(NC(=O)[C@H](CCCCNC(=O)CN2CCN(CC(=O)O)CCN(CC(=O)O)CCN(CC(=O)O)CC2)NC(=O)CNC(=O)CCCc2ccc(I)cc2)CC1)C(=O)N[C@H]1CC(=O)NCCCC[C@@H](C(N)=O)N(C)C(=O)[C@H](Cc2c[nH]c3ccccc23)NC(=O)[C@H](CCCNC(=N)N)N(C)C(=O)[C@@H](Cc2ccccc2)NC(=O)[C@H](Cc2c[nH]cn2)NC1=O [^177Lu-labeled CCZ01148, metal not drawn]" unit_of_measure=%ID/g recorded_result=1.96
compound="CCCC[C@H](NC(=O)CN1CCC(NC(=O)[C@H](CCCCNC(=O)CN2CCN(CC(=O)O)CCN(CC(=O)O)CCN(CC(=O)O)CC2)NC(=O)[C@H](CCC(=O)O)NC(=O)CCCc2ccc(I)cc2)CC1)C(=O)N[C@H]1CC(=O)NCCCC[C@@H](C(N)=O)N(C)C(=O)[C@H](Cc2c[nH]c3ccccc23)NC(=O)[C@H](CCCNC(=N)N)N(C)C(=O)[C@@H](Cc2ccccc2)NC(=O)[C@H](Cc2c[nH]cn2)NC1=O [^177Lu-labeled CCZ01118, metal not drawn]" unit_of_measure=%ID/g recorded_result=0.36

From here, focus on the item given below.
Qu. Fill in: tissue uptake at 4 h of CCCC[C@H](NC(=O)CN1CCC(NC(=O)[C@H](CCCCNC(=O)CN2CCN(CC(=O)O)CCN(CC(=O)O)CCN(CC(=O)O)CC2)NC(=O)CNC(=O)CCCc2ccc(-c3ccc(C)cc3)cc2)CC1)C(=O)N[C@H]1CC(=O)NCCCC[C@@H](C(N)=O)N(C)C(=O)[C@H](Cc2c[nH]c3ccccc23)NC(=O)[C@H](CCCNC(=N)N)N(C)C(=O)[C@@H](Cc2ccccc2)NC(=O)[C@H](Cc2c[nH]cn2)NC1=O [^177Lu-labeled CCZ01158, metal not drawn] is ___
Ans. 1.03
